system: LNCaP; test: SRB colorimetric assay of cell growth and viability, LNCaP; type: cell-based, human; details: LN-caP; 48 hours exposure; read-out: LC50 LN-caP
Where a SMILES comes first, the peptide text is derived from it. Bridges are numbered along the chain shown (N, C = ends). [ ]: non-standard residue; d: D form. The star is where a group is joined. d(aIle) = CC[C@H](C)[C@@H](N)C(=O)O; d(aThr) = C[C@@H](O)[C@@H](N)C(=O)O; Hexanoyl(5-Me) = CC(C)CCCC(=O)*; Orn = NCCC[C@H](N)C(=O)O; Dhb = C/C=C(\N)C(=O)O
// map CC50 onto a label; ranges bottom = under 5 µM, middle = from 5 µM up to 6 µM, top = 6 µM and over

Examples with answers:
# Compound, Group label
measured = [
    ("C/C=C1\\NC(=O)[C@H](Cc2ccccc2)NC(=O)[C@@H](C(C)C)NC(=O)[C@@H]([C@@H](C)CC)NC(=O)[C@H](NC(=O)[C@H](NC(=O)[C@H](CCCN)NC(=O)[C@H]2CCCN2C(=O)[C@H](NC(=O)[C@@H](NC(=O)[C@@H](NC(=O)[C@@H](CCCN)NC(=O)CCCC(C)C)[C@@H](C)O)C(C)C)C(C)C)[C@@H](C)CC)[C@@H](C)OC(=O)[C@H](C(C)C)NC1=O [Compound 118, [D-Orn^13]-KF]", "top"),
    ("C/C=C1\\NC(=O)[C@H](Cc2ccccc2)NC(=O)[C@@H](C(C)C)NC(=O)[C@@H]([C@@H](C)CC)NC(=O)[C@H](NC(=O)[C@H](NC(=O)[C@H](CCCN)NC(=O)[C@H]2CCCN2C(=O)[C@H](NC(=O)[C@@H](NC(=O)[C@H](CC(C)C)NC(=O)[C@H](NC(=O)CCCC(C)C)C(C)C)C(C)C)C(C)C)[C@@H](C)CC)[C@@H](C)OC(=O)[C@H](C(C)C)NC1=O [Compound 113, [Leu^12]-KF] ({Hexanoyl(5-Me)}-[dV]LV[dV][dP][Orn][d(aIle)][d(aThr)][d(aIle)][dV]F[Dhb]V; ester 8-C)", "middle"),
    ("C/C=C1\\NC(=O)[C@H](Cc2ccccc2)NC(=O)[C@@H](C(C)C)NC(=O)[C@@H]([C@@H](C)CC)NC(=O)[C@H](NC(=O)[C@H](NC(=O)[C@H](CCCN)NC(=O)[C@H]2CCCN2C(=O)[C@H](NC(=O)[C@@H](NC(=O)CNC(=O)[C@H](NC(=O)CCCC(C)C)C(C)C)C(C)C)C(C)C)[C@@H](C)CC)[C@@H](C)OC(=O)[C@H](C(C)C)NC1=O [Compound 111, [Gly^12]-KF] ({Hexanoyl(5-Me)}-[dV]GV[dV][dP][Orn][d(aIle)][d(aThr)][d(aIle)][dV]F[Dhb]V; ester 8-C)", "top"),
    ("C/C=C1\\NC(=O)[C@H](Cc2ccccc2)NC(=O)[C@@H](C(C)C)NC(=O)[C@@H]([C@@H](C)CC)NC(=O)[C@H](NC(=O)[C@H](NC(=O)[C@H](CCCN)NC(=O)[C@H]2CCCN2C(=O)[C@H](NC(=O)[C@@H](NC(=O)[C@H](CCCN)NC(=O)[C@H](NC(=O)CCCC(C)C)C(C)C)C(C)C)C(C)C)[C@@H](C)CC)[C@@H](C)OC(=O)[C@H](C(C)C)NC1=O [Compound 116, [Orn^12]-KF] ({Hexanoyl(5-Me)}-[dV][Orn]V[dV][dP][Orn][d(aIle)][d(aThr)][d(aIle)][dV]F[Dhb]V; ester 8-C)", "top"),
]

Prompt: Which bin should I file C/C=C1\NC(=O)[C@H](Cc2ccccc2)NC(=O)[C@@H](C(C)C)NC(=O)[C@@H]([C@@H](C)CC)NC(=O)[C@H](NC(=O)[C@H](NC(=O)[C@H](CCCN)NC(=O)[C@H]2CCCN2C(=O)[C@H](NC(=O)[C@@H](NC(=O)[C@@H]2CCCN2C(=O)[C@H](NC(=O)CCCC(C)C)C(C)C)C(C)C)C(C)C)[C@@H](C)CC)[C@@H](C)OC(=O)[C@H](C(C)C)NC1=O [Compound 117, [Pro^12]-KF] ({Hexanoyl(5-Me)}-[dV]PV[dV][dP][Orn][d(aIle)][d(aThr)][d(aIle)][dV]F[Dhb]V; ester 8-C) under?
Completion: middle

Prompt: Which bin should I file C/C=C1\NC(=O)[C@H](Cc2ccccc2)NC(=O)[C@@H](C(C)C)NC(=O)[C@@H]([C@@H](C)CC)NC(=O)[C@H](NC(=O)[C@H](NC(=O)[C@H](CCCN)NC(=O)[C@H]2CCCN2C(=O)[C@H](NC(=O)[C@@H](NC(=O)[C@H](Cc2ccccc2)NC(=O)[C@H](NC(=O)CCCC(C)C)C(C)C)C(C)C)C(C)C)[C@@H](C)CC)[C@@H](C)OC(=O)[C@H](C(C)C)NC1=O [Compound 114, [Phe^12]-KF] ({Hexanoyl(5-Me)}-[dV]FV[dV][dP][Orn][d(aIle)][d(aThr)][d(aIle)][dV]F[Dhb]V; ester 8-C) under?
Completion: bottom

Prompt: Which bin should I file C/C=C1\NC(=O)[C@H](Cc2ccccc2Cl)NC(=O)[C@@H](C(C)C)NC(=O)[C@@H]([C@@H](C)CC)NC(=O)[C@H](NC(=O)[C@H](NC(=O)[C@H](CCCN)NC(=O)[C@H]2CCCN2C(=O)[C@H](NC(=O)[C@@H](NC(=O)[C@@H](NC(=O)[C@H](NC(=O)CCCC(C)C)C(C)C)[C@@H](C)O)C(C)C)C(C)C)[C@@H](C)CC)[C@@H](C)OC(=O)[C@H](C(C)C)NC1=O [Compound 81, [Phe(2-Cl)^3]-KF] under?
Completion: bottom
